- System: Venturia inaequalis
- method-notes: Example A: greenhouse control of apple scab, phthalimides with DMI and/or fluopyram
- Type: in vivo
- test-settings: Table 3; change of % control from 19 to 26 days
I'd appreciate it if you could supply Var % (19/26 DAYS) values for the items below.
Give bare numbers, in %.

// worked examples, Var % (19/26 DAYS) included
molecule: O=C1c2ccccc2C(=O)N1SC(Cl)(Cl)Cl
measured-property: Var % (19/26 DAYS)
scale-unit: %
measured-result: −10.3
--
molecule: CC(C)(C)C(O)(CCc1ccc(Cl)cc1)Cn1cncn1 (centres unmarked)
measured-property: Var % (19/26 DAYS)
scale-unit: %
measured-result: −6.2
--
molecule: O=C(NCCc1ncc(C(F)(F)F)cc1Cl)c1ccccc1C(F)(F)F
measured-property: Var % (19/26 DAYS)
scale-unit: %
measured-result: −10.3
--
molecule: CC1COC(Cn2cncn2)(c2ccc(Oc3ccc(Cl)cc3)cc2Cl)O1 (centres unmarked)
measured-property: Var % (19/26 DAYS)
scale-unit: %
measured-result: −7.8

Record O=C1C2CC=CCC2C(=O)N1SC(Cl)(Cl)Cl (centres unmarked) , field Var % (19/26 DAYS): −8.1
